Origin of the recorded values: PubChem BioAssay

z-score for assorted compounds
Test Name: A549 lung cancer cell viability effects, profiling panel, resazurin fluorescence, 24 h, PK04 Diversity Set (AID 1171); also: test concentration not given here
Measurement Parameters: higher = more signal, called active from +8 up or from −8 down
Assay Readout: z-score

>>> quantitative_result("CC(C)=CCCC(C)=CC(O)C1C=CC2C(=O)N(c3ccccc3)C(=O)C2N1Nc1ccccc1F (stereo unspecified)")
0.598
>>> quantitative_result("CN1C(=O)C2C=CC(C(O)c3cc(C(F)(F)F)cc(C(F)(F)F)c3)N(NC(=O)OC(C)(C)C)C2C1=O (stereo unspecified)")
1.14
>>> quantitative_result("CCCNC(=O)[C@@]1(Sc2ccc(C)cc2)CC(=O)N(C2CCCCC2)[C@@H]1c1ccc(CO)cc1I")
0.696
>>> quantitative_result("CCCCCCCCCCC(O)C1C=CC2C(=O)N(c3ccccc3)C(=O)C2N1Nc1ccccc1F (stereo unspecified)")
0.162
>>> quantitative_result("COCCCNC(=O)[C@@]1(c2ccc([N+](=O)[O-])cc2)CC(=O)N(C(C)C)[C@@H]1c1ccc(CO)cc1")
0.985
>>> quantitative_result("O=C(N1CCOCC1)[C@@]1(CCS(=O)(=O)c2ccccc2)N=C(c2ccc(OCCCO)cc2)O[C@H]1c1ccccc1")
-0.223

----------
Experimental Target: Streptavidin (Streptomyces avidinii)
Test Name: streptavidin binders on small-molecule microarray, primary screen, artefact control for SMM compound annotation, biophysical, 635/667 nm fluorescence (AID 1147);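 also: signal reflects streptavidin binding to arrayed compounds as a control protein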
Measurement Parameters: streptavidin binding, higher = more signal
Assay Readout: composite z-score

>>> quantitative_result("NC(=O)NCC#Cc1ccc2c(c1)[C@]1(C(=O)N2)[C@H](C(=O)N2CCN(c3ncccn3)CC2)[C@H]2C(=O)O[C@H](c3ccccc3)[C@H](c3ccccc3)N2[C@@H]1c1ccc(OCCO)cc1")
0.644
>>> quantitative_result("O=C(NCC(O)CO)[C@@]1(CCS(=O)(=O)c2ccccc2)COC(c2ccc(OCCCO)cc2)=N1 (stereo partly specified)")
0.985
>>> quantitative_result("CC(C)CCC[C@@H](C)[C@H]1CC[C@@]2(C)C3=C(CC[C@]12C)[C@@]1(C)CC[C@H](OC(=O)c2ccccc2)C(C)(C)C1CC3 (stereo partly specified)")
0.18
>>> quantitative_result("C=C[C@@H](OC)[C@H](OC(=O)Nc1ccc(SC)cc1)c1ccc(OCCO)cc1")
0.22
>>> quantitative_result("COC(=O)[C@@]1(Cc2ccc(F)cc2)[C@H]2c3cc(C(=O)N4CCCC4)n(CC4CC4)c3C[C@H]2CN1C(=O)c1ccccc1")
1.86
>>> quantitative_result("COc1cc(NN2C(C(O)c3ccccc3)C=CC3C(=O)N(C)C(=O)C32)cc(OC)c1OC (stereo unspecified)")
0.194
>>> quantitative_result("C=C(COC)/C(=C/C[C@H](OC(C)=O)c1cccc(OCCO)c1)c1cnc2ccccc2c1")
1.46
>>> quantitative_result("NC(=O)[C@H]1[C@@H]2C(=O)O[C@@H](c3ccccc3)[C@@H](c3ccccc3)N2[C@@H](c2ccc(O)cc2)[C@]12C(=O)Nc1ccccc12")
-1.08
>>> quantitative_result("CN(C)CCCCCCNC(=O)[C@@H]1C[C@@H]2C(=O)N[C@@H](CCCCN)C(=O)N2[C@@H]1c1ccc(O)cc1")
2.97
>>> quantitative_result("C#C[C@@H](CC)O[Si](C#CCCCC#N)(C(C)C)C(C)C")
-0.0686
>>> quantitative_result("C=CCNC(=O)[C@@H]1[C@H]2C(=O)O[C@H](c3ccccc3)[C@H](c3ccccc3)N2[C@H](c2ccc(O)cc2)[C@@]12C(=O)N(C(=O)OCCOC)c1ccc(C#CCCO)cc12")
0.945
